Test: Cytotoxicity in MT-4 cells, MTT method
Details: human, uninfected MT-4 cells
In plain terms, low CC50 at 4 days, meaning strictly below 40 µg/mL, gives Condition met, and everything else gives Condition not met.

Solved cases (3 shown):
>  <compound>
N#CC1(CO)OC(n2cc(F)c3c(O)ncnc32)C(F)C1O (centres unmarked)

>  <class.label>
Condition not met

$$$$
>  <compound>
[N-]=[N+]=NC1(CO)OC(n2ccc(N)nc2=O)C(F)C1O (centres unmarked)

>  <class.label>
Condition not met

$$$$
>  <compound>
[N-]=[N+]=NC1(CO)OC(n2cc(F)c3c(N)ncnc32)C(F)C1O (centres unmarked)

>  <class.label>
Condition met

$$$$

(Q) Find out if reported CC50 at 4 days for CC1(CO)OC(n2ccc(O)nc2=O)C(F)C1O (centres unmarked) is less than 40 µg/mL
(A) Condition met

(Q) Find out if reported CC50 at 4 days for C#CC1(CO)OC(n2cc(F)c3c(N)ncnc32)C(F)C1O (centres unmarked) is less than 40 µg/mL
(A) Condition met

(Q) Find out if reported CC50 at 4 days for CC1(CO)OC(n2cnc3c(O)ncnc32)C(F)C1O (centres unmarked) is less than 40 µg/mL
(A) Condition met

(Q) Find out if reported CC50 at 4 days for N#CC1(CO)OC(n2cnc3c(N)ncnc32)C(F)C1O (centres unmarked) is less than 40 µg/mL
(A) Condition met

src = patent US8835615B2
